- test.details: self-splicing fitness, log relative to wild type (ln ratio); higher = more splicing; Tetrahymena group I intron in knt gene, E. coli kanamycin selection, DiMSum; sequences stand for … in CUCUCU…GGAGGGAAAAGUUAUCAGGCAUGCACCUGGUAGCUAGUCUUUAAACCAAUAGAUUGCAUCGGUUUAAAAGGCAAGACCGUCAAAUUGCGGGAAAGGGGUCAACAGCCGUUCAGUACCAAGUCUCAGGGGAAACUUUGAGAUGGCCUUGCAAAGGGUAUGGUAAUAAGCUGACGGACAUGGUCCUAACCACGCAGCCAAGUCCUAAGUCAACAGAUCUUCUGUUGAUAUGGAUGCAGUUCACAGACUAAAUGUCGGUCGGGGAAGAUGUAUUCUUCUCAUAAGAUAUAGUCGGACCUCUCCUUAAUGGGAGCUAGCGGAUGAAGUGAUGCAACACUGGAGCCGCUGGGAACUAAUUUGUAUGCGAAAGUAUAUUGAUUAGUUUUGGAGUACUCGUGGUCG;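 further: selection with 25 µg/mL kanamycin versus none on LB agar overnight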
- condition.details: 37 °C
Values of self-splicing fitness (ln) greater than or equal to -2 map to Y; values below map to N.

query: Does AUGGAGCAAUAUUACGGUUG have a reported self-splicing fitness (ln) of at least -2?
result: N

query: Does GAGCAGCAAUAUUACGAAGC have a reported self-splicing fitness (ln) of at least -2?
result: N

query: Does UAACAGCAAUAUUACGCUUG have a reported self-splicing fitness (ln) of at least -2?
result: Y

query: Does CGUCAGCAAUAUUACGAUUA have a reported self-splicing fitness (ln) of at least -2?
result: Y

query: Does UUGAAGCAAUAUUACGGUCU have a reported self-splicing fitness (ln) of at least -2?
result: Y

query: Does GCCCAGCAAUAUUACGUCCG have a reported self-splicing fitness (ln) of at least -2?
result: N

query: Does CUCGAGCAAUAUUACGGACC have a reported self-splicing fitness (ln) of at least -2?
result: N

query: Does GUUAAGCAAUAUUACGUGCU have a reported self-splicing fitness (ln) of at least -2?
result: Y

query: Does CCGUAGCAAUAUUACGUUUU have a reported self-splicing fitness (ln) of at least -2?
result: N

query: Does ACGAAGCAAUAUUACGCCGU have a reported self-splicing fitness (ln) of at least -2?
result: Y

query: Does CCGAAGCAAUAUUACGCCGU have a reported self-splicing fitness (ln) of at least -2?
result: Y

query: Does CAUGAGCAAUAUUACGGCAU have a reported self-splicing fitness (ln) of at least -2?
result: N

query: Does AGUGAGCAAUAUUACGUUGU have a reported self-splicing fitness (ln) of at least -2?
result: Y

query: Does AUUUAGCAAUAUUACGGCCG have a reported self-splicing fitness (ln) of at least -2?
result: Y

query: Does CCUAAGCAAUAUUACGGAGG have a reported self-splicing fitness (ln) of at least -2?
result: N

query: Does CUAGAGCAAUAUUACGUGCU have a reported self-splicing fitness (ln) of at least -2?
result: Y

query: Does CGGUAGCAAUAUUACGACCU have a reported self-splicing fitness (ln) of at least -2?
result: Y

query: Does AAAUAGCAAUAUUACGCCCG have a reported self-splicing fitness (ln) of at least -2?
result: Y

query: Does GUAAAGCAAUAUUACGCGAG have a reported self-splicing fitness (ln) of at least -2?
result: Y

query: Does UGCAAGCAAUAUUACGGCCU have a reported self-splicing fitness (ln) of at least -2?
result: Y

query: Does AGCCAGCAAUAUUACGCUAU have a reported self-splicing fitness (ln) of at least -2?
result: Y

query: Does GGACAGCAAUAUUACGGUGA have a reported self-splicing fitness (ln) of at least -2?
result: Y

query: Does GGACAGCAAUAUUACGCCUG have a reported self-splicing fitness (ln) of at least -2?
result: Y

query: Does CCCCAGCAAUAUUACGGUAG have a reported self-splicing fitness (ln) of at least -2?
result: Y

query: Does AUGAAGCAAUAUUACGAGUU have a reported self-splicing fitness (ln) of at least -2?
result: Y

query: Does ACUCAGCAAUAUUACGUGGG have a reported self-splicing fitness (ln) of at least -2?
result: N

query: Does CCUAAGCAAUAUUACGAUAG have a reported self-splicing fitness (ln) of at least -2?
result: Y

query: Does CUGCAGCAAUAUUACGAACA have a reported self-splicing fitness (ln) of at least -2?
result: Y

query: Does ACUUAGCAAUAUUACGUCAA have a reported self-splicing fitness (ln) of at least -2?
result: N

query: Does AACCAGCAAUAUUACGGUAC have a reported self-splicing fitness (ln) of at least -2?
result: Y

query: Does GCGAAGCAAUAUUACGAGAA have a reported self-splicing fitness (ln) of at least -2?
result: Y

query: Does AUGCAGCAAUAUUACGUAAA have a reported self-splicing fitness (ln) of at least -2?
result: Y

query: Does ACUCAGCAAUAUUACGGGCU have a reported self-splicing fitness (ln) of at least -2?
result: Y

query: Does AAGUAGCAAUAUUACGUGAG have a reported self-splicing fitness (ln) of at least -2?
result: Y

query: Does CGAAAGCAAUAUUACGCCUG have a reported self-splicing fitness (ln) of at least -2?
result: Y

query: Does GGCCAGCAAUAUUACGGGAC have a reported self-splicing fitness (ln) of at least -2?
result: Y

query: Does GUGAAGCAAUAUUACGAGCA have a reported self-splicing fitness (ln) of at least -2?
result: Y

query: Does ACGUAGCAAUAUUACGCUCA have a reported self-splicing fitness (ln) of at least -2?
result: Y

query: Does AUCCAGCAAUAUUACGAUGU have a reported self-splicing fitness (ln) of at least -2?
result: Y

query: Does GGGAAGCAAUAUUACGCAAU have a reported self-splicing fitness (ln) of at least -2?
result: Y

query: Does CAUGAGCAAUAUUACGCCUC have a reported self-splicing fitness (ln) of at least -2?
result: Y

query: Does UCCAAGCAAUAUUACGGUUU have a reported self-splicing fitness (ln) of at least -2?
result: N

query: Does ACACAGCAAUAUUACGAAAA have a reported self-splicing fitness (ln) of at least -2?
result: N

query: Does AAUAAGCAAUAUUACGCCCG have a reported self-splicing fitness (ln) of at least -2?
result: Y

query: Does GGUCAGCAAUAUUACGACAA have a reported self-splicing fitness (ln) of at least -2?
result: Y

query: Does UCGUAGCAAUAUUACGACAC have a reported self-splicing fitness (ln) of at least -2?
result: N

query: Does GACGAGCAAUAUUACGUGAA have a reported self-splicing fitness (ln) of at least -2?
result: N

query: Does UCUUAGCAAUAUUACGUAGA have a reported self-splicing fitness (ln) of at least -2?
result: Y

query: Does GAUAAGCAAUAUUACGCCUC have a reported self-splicing fitness (ln) of at least -2?
result: N

query: Does AAGUAGCAAUAUUACGAUUA have a reported self-splicing fitness (ln) of at least -2?
result: Y

query: Does GUCCAGCAAUAUUACGGCGA have a reported self-splicing fitness (ln) of at least -2?
result: Y

query: Does CGCAAGCAAUAUUACGGAGU have a reported self-splicing fitness (ln) of at least -2?
result: Y

query: Does ACAGAGCAAUAUUACGAUUA have a reported self-splicing fitness (ln) of at least -2?
result: N

query: Does UCCGAGCAAUAUUACGGCUG have a reported self-splicing fitness (ln) of at least -2?
result: Y

query: Does AAAGAGCAAUAUUACGUGUU have a reported self-splicing fitness (ln) of at least -2?
result: N

query: Does UACUAGCAAUAUUACGGAGA have a reported self-splicing fitness (ln) of at least -2?
result: Y

query: Does GGCAAGCAAUAUUACGAGUA have a reported self-splicing fitness (ln) of at least -2?
result: Y

query: Does AUUCAGCAAUAUUACGAAGA have a reported self-splicing fitness (ln) of at least -2?
result: Y

query: Does AUUCAGCAAUAUUACGGAUU have a reported self-splicing fitness (ln) of at least -2?
result: N

query: Does AUUAAGCAAUAUUACGGGCU have a reported self-splicing fitness (ln) of at least -2?
result: Y

query: Does UAUAAGCAAUAUUACGACCU have a reported self-splicing fitness (ln) of at least -2?
result: Y

query: Does GUUGAGCAAUAUUACGUAAC have a reported self-splicing fitness (ln) of at least -2?
result: N
